Assay: p53 small molecule agonists, cell-based qHTS assay: qHTS cell viability counter screen (AID 1963581); further: nearly all actives have a fitted effect of over 45% in size
Measurement conditions: p53RE-bla HCT-116 viability, ATP luminescence, 16 h; series mostly up to 66 µM
Records with an inconclusive call do not appear. Activity calls are given as the source filed them. The call rests on the fitted dose curve.
Respond with a class label; see label 1 (active), label 0 (inactive)

Worked examples follow.
Molecule | Assigned label
NS(=O)(=O)c1cc2c(cc1Cl)NCNS2(=O)=O | label 0
CCCCOCCO | label 0
CCCCC/C=C\C/C=C\CCCCCCCC(=O)OC | label 0
Cc1ccnc2c1NC(=O)c1cccnc1N2C1CC1 | label 0
OCCOCCN1CCN(C(c2ccccc2)c2ccc(Cl)cc2)CC1 (centres undefined) | label 0

Q: // outcome(item) with item = `c1cnc2c(c1)ccc1cccnc12`
Ans: label 0

Q: Any idea what this test logged for `CN1C(C(=O)Nc2ccccn2)=C(O)c2ccccc2S1(=O)=O` ?
Ans: label 0

Q: Look up the recorded call for `COC(=O)[C@H]1[C@H]2C[C@@H]3c4[nH]c5cc(OC)ccc5c4CCN3C[C@H]2C[C@@H](OC(=O)c2cc(OC)c(OC)c(OC)c2)[C@@H]1OC` in this test.
Ans: label 0

Q: What was the test verdict on `C=C(C)C(=O)OCC(CC)(COC(=O)C(=C)C)COC(=O)C(=C)C` ?
Ans: label 0

Q: How was `C=C(C)C(=O)O[C@H]1C[C@@H]2CC[C@@]1(C)C2(C)C` classified in this test?
Ans: label 0
